Data origin, for the record: ChEMBL document CHEMBL3603748

Let's go through some recorded Ki values for UniProt:Q9YQ12 together.
Value Kind: Ki (nM)

CCN(CC)[C@H]1CO[C@@H]2OC[C@H](OC(=O)N[C@@H](Cc3ccccc3)[C@H](O)CN(CC(C)C)S(=O)(=O)c3ccc(OC)cc3)[C@@H]21 0.014
CCN(C(=O)OC(C)(C)C)[C@H]1CO[C@@H]2OC[C@H](OC(=O)N[C@@H](Cc3ccccc3)[C@H](O)CN(CC(C)C)S(=O)(=O)c3ccc(OC)cc3)[C@@H]21 0.048
COc1ccc(S(=O)(=O)N(CC(C)C)C[C@@H](O)[C@H](Cc2ccccc2)NC(=O)O[C@H]2CO[C@H]3OC[C@H](NC(=O)OC(C)(C)C)[C@H]32)cc1 0.014

###

Let's go through some recorded Ki values for Protease (Human immunodeficiency virus 1, UniProt Q9YQ12) together.
Value Kind: Ki (pM)

CCN[C@H]1CO[C@@H]2OC[C@H](OC(=O)N[C@@H](Cc3ccccc3)[C@H](O)CN(CC(C)C)S(=O)(=O)c3ccc(OC)cc3)[C@@H]21 27
CN[C@H]1CO[C@@H]2OC[C@H](OC(=O)N[C@@H](Cc3ccccc3)[C@H](O)CN(CC(C)C)S(=O)(=O)c3ccc(OC)cc3)[C@@H]21 1.5
COC(=O)N[C@H]1CO[C@@H]2OC[C@H](OC(=O)N[C@@H](Cc3ccccc3)[C@H](O)CN(CC(C)C)S(=O)(=O)c3ccc(OC)cc3)[C@@H]21 24
COc1ccc(S(=O)(=O)N(CC(C)C)C[C@@H](O)[C@H](Cc2ccccc2)NC(=O)O[C@H]2CO[C@H]3OC[C@H](NC(C)C)[C@H]32)cc1 6.3

###

# Tested on: Human immunodeficiency virus 1
# Protocol Summary: Antiviral activity against darunavir-resistant HIV1 P51 infected in human MT4 cells by XTT assay
# Assay type: functional, organism-based
# Assay Context: Human immunodeficiency virus 1, P51, MT4
pEC50: −log10 of the molar value.
Value Kind: pEC50

CCN[C@H]1CO[C@@H]2OC[C@H](OC(=O)N[C@@H](Cc3ccccc3)[C@H](O)CN(CC(C)C)S(=O)(=O)c3ccc(OC)cc3)[C@@H]21 6.64
COc1ccc(S(=O)(=O)N(CC(C)C)C[C@@H](O)[C@H](Cc2ccccc2)NC(=O)O[C@H]2CO[C@H]3OC[C@H](NC(C)C)[C@H]32)cc1 6.59
